B1: 2M8U (parent)
chain: TKAQVIEAFKVFDRDGNGYVTVDYLRKVLNELGDMMPADEIEEMIYEADPQNSGYVQYETFVGMLFL

# Variants of: B1
# Protocol Summary: folding stability dG (cDNA display proteolysis); higher = more stable
# Conditions Used: PBS, room temperature
Use 1 when the recorded folding stability dG is no lower than 3 kcal/mol; use -1 when it is lower.

{"columns": ["Mutation Label", "Assigned Category"],
 "data": [
  ["G16Y", -1],
  ["V28N", -1],
  ["L65A", -1],
  ["D39K", 1],
  ["M44D", -1],
  ["M36S", 1],
  ["D23M", 1],
  ["D13V", -1],
  ["V20D", -1],
  ["Y55W", 1]
]}
